# Test system: CCRIS mutagenicity, Ames/micronucleus/aberration tests
# procedure-summary: CCRIS mutagenicity studies
# test-conditions: Test System: AMES SALMONELLA TYPHIMURIUM; Strain/Indicator: TA100; Metabolic Activation: NONE; Method: PREINCUBATION
The source made the active and inactive calls. How the calls were made is not given here.
Choose the fitting class; nothing outside active, inactive is accepted.

Ask: How was "Cc1cccc(C)c1NC(=O)CN1CCCC1=O" classified in this test?
Reply: inactive

Ask: How was "N#CCc1ccc(Cl)cc1" classified in this test?
Reply: inactive

Ask: How was "Nc1nc(-c2ccc([N+](=O)[O-])cc2)nc2c1ncn2[C@@H]1O[C@H](CO)[C@@H](O)[C@H]1O" classified in this test?
Reply: active

Ask: How was "CCN(CC)C(=O)c1cccc(C)c1" classified in this test?
Reply: inactive

Ask: How was "Cc1ccco1" classified in this test?
Reply: inactive

Ask: How was "NC(=O)CCCCC(N)=O" classified in this test?
Reply: inactive

Ask: How was "CN(C)c1ccc(C(=N)c2ccc(N(C)C)cc2)cc1" classified in this test?
Reply: inactive

Ask: How was "O=C(O)C(=O)C(=O)O" classified in this test?
Reply: inactive

Ask: How was "Cn1cnc([N+](=O)[O-])c1Sc1ncnc2nc[nH]c12" classified in this test?
Reply: active

Ask: How was "COC(=O)CC(C)=O" classified in this test?
Reply: inactive

Ask: How was CCOc1ccc(N(O)C(=O)CC(C)O)cc1 (stereo not drawn) classified in this test?
Reply: inactive

Ask: How was "NC(N)=NC(N)=NCCc1ccccc1" classified in this test?
Reply: inactive

Ask: How was "O=c1ccc2c(cc3ccc4cccc5ccc2c3c45)c1=O" classified in this test?
Reply: inactive

Ask: How was "CCC(C(N)=O)(C(N)=O)c1ccccc1" classified in this test?
Reply: inactive

Ask: How was "Clc1nncc2ccccc12" classified in this test?
Reply: inactive

Ask: How was O=NN1CCSC1C(O)C(O)C(O)C(O)CO (stereo not drawn) classified in this test?
Reply: active

Ask: How was "CC1(C)S[C@@H]2[C@H](NC(=O)[C@H](N)c3ccccc3)C(=O)N2[C@H]1C(=O)O" classified in this test?
Reply: inactive
